# test name: APR_HepG2_MitoticArrest_72hr: Apredica 72-hour HepG2 Assay for Mitotic Arrest (AID 2282918)
# measurement parameters: high-content imaging, actives raise or lower the signal
Activity calls are given as the source filed them. How the source made its calls: active means hit-call score of the fitted dose curve at least 0.9, where 1 is the maximum; inactive means score below 0.9.
Select the matching outcome among yes = active, no = inactive

# fetch the recorded call for OCCN(CCO)CCO here no

Can you check Oc1cc(Cl)c(Cl)cc1Cl next? yes

Repeat with Clc1cccc(Cl)c1 no

Okay, and CC(C)(C)c1ccccc1O ? no

Thanks! And Oc1c(Cl)cc(Cl)cc1Cl ? yes

Try this compound next: O=C(O)C1(c2ccc3c(c2)OC[C@H](Cc2ccc(-c4ccccc4)cc2)[C@H]3O)CCCC1 yes

Ok, now CC(C)O.CC(C)O.OCCN(CCO)CCO.OCCN(CCO)CCO.[Ti] no

###

# test name: ATG_GLI_CIS: Attagene CIS-FACTORIAL HepG2 Assay for human Zinc Finger Protein GLI1 (AID 2282945)
# measurement parameters: HepG2, Attagene cis-factorial reporter mRNA, GLI element; actives raise or lower the signal
The source made the active and inactive calls. The calls were made as follows: active = hit-call score of the fitted dose curve at least 0.9, where 1 is the maximum; inactive = score below 0.9.
measurement name: outcome

Known results for molecules:
{"columns": ["smiles text", "outcome"],
 "data": [
  ["C[C@]12CC[C@@H](O)C[C@@H]1CC[C@@H]1[C@@H]2CC[C@]2(C)C(=O)CC[C@@H]12", "inactive"],
  ["Cc1cc(-c2cc(C)c(N)c(C)c2)cc(C)c1N", "inactive"],
  ["O=S(=O)(c1ccc(Cl)cc1)c1cc(Cl)c(Cl)cc1Cl", "inactive"],
  ["CC(C)(C#N)N=NC(C)(C)C#N", "inactive"],
  ["N#Cc1cccnc1", "inactive"]
]}

Need outcome, item N#Cc1ccncc1 inactive

Then what about the molecule CC(C)(C)c1cc([N+](=O)[O-])cc(C(C)(C)C)c1O ? inactive

###

# target entity: Oxysterols receptor LXR-beta (Homo sapiens)
# test name: ATG_LXRb_TRANS: Attagene TRANS-FACTORIAL HepG2 Assay for human Liver X Receptor beta (LXRb) (AID 2282981)
# measurement parameters: HepG2 Attagene TRANS GAL4-LXRb reporter, mRNA
Records with an inconclusive call do not appear. The source made the active and inactive calls. Rule for the calls: active = hit-call score of the fitted dose curve at least 0.9, where 1 is the maximum; inconclusive = response in the unintended direction; inactive = score below 0.9.
measurement name: outcome

{"columns": ["smiles text", "target entity", "reported value"],
 "data": [
  ["CS(=O)(=O)c1ccc(C(=O)C2C(=O)CCCC2=O)c(Cl)c1COCC(F)(F)F", "Oxysterols receptor LXR-beta (Homo sapiens)", "inactive"],
  ["Oc1ccc(Cc2ccc(O)cc2)cc1", "Oxysterols receptor LXR-beta (Homo sapiens)", "inactive"],
  ["CNC(=O)N(C)c1nc2ccccc2s1", "Oxysterols receptor LXR-beta (Homo sapiens)", "inactive"]
]}

###

# System: zebrafish Peroxisome Proliferator-activated Receptor gamma (PPARg), gene 557037
# test name: ATG_zfPPARg_XSP2: Attagene TRANS-FACTORIAL Multi-Species (XSP2) HepG2 Assay for zebrafish Peroxisome Proliferator-activated Receptor gamma (PPARg) (AID 2283833);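 further: reporter mRNA from a zebrafish PPARg GAL4 chimera measured by RT-PCR and capillary electrophoresis; actives increase reporter signal over DMSO so AC50 reflects activation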
# Method: ATG_XSP2_multi-species_TRANS is a cell-based, multiplexed assay created by modifying the existing Attagene TRANS-FACTORIAL system to include a panel of nuclear receptors from some or all the following species: human (Homo sapiens), mouse (Mus musculus), frog (Xenopus laevis), zebrafish (Danio rerio), chicken (Gallus gallus), and turtle (Chrysemys picta). The ECOTOX-FACTORIAL format uses HepG2, a human liver cell line, with measurements taken at 24 hours after chemical dosing in a 24-well plate. […]
Records with an inconclusive call do not appear. Activity calls are given as the source filed them. Rule for the calls: active = hit-call score of the fitted dose curve at least 0.9, where 1 is the maximum; inconclusive = response in the unintended direction; inactive = score below 0.9.
Assign a class; possible classes are active, inactive

Query: recorded result category for CC(O)(CS(=O)(=O)c1ccc(F)cc1)C(=O)Nc1ccc(C#N)c(C(F)(F)F)c1 (centres undefined) in this test inactive

Another compound: Oc1cc(Cl)c(Cl)cc1Cl inactive

Similarly, O=c1oc2ccccc2c(O)c1C(CC(O)c1ccc(-c2ccc(Br)cc2)cc1)c1ccccc1 (centres undefined) ? active

Try [Cl][Sn]([c]1ccccc1)([c]1ccccc1)[c]1ccccc1 next. inactive

###

# target entity: Peroxisome proliferator-activated receptor gamma (Homo sapiens)
# test name: NVS_NR_hPPARg: NovaScreen (NVS) Nuclear Receptor Binding Assay for human Peroxisome Proliferator-activated Receptor gamma (PPARg) (AID 2283370)
Records with an inconclusive call do not appear. Calls of active or inactive are those of the source. How the source made its calls: active means hit-call score of the fitted dose curve at least 0.9, where 1 is the maximum; inconclusive means response in the unintended direction; inactive means score below 0.9.
Outcome (select one): active, inactive

Assay outcome for CC(=Cc1ccccc1)[N+](=O)[O-] : what was it? inactive

Quick one: O=[N+]([O-])c1ccc(Cl)c([N+](=O)[O-])c1 inactive

And for O=S1(=O)OC(c2cc(Br)c(O)c(Br)c2)(c2cc(Br)c(O)c(Br)c2)c2ccccc21 ? active

Try the compound O=C(O)COc1cc(Cl)c(Cl)cc1Cl active

Also Cc1cc(Cl)ccc1OC(C)C(=O)O (stereo not drawn) ? inactive

Same again, this time with Oc1c(Br)cc(Br)cc1Br inactive

# iterate: O=C(CCl)Nc1ccccc1 inactive

Do the same for CCOCn1c(-c2ccc(Cl)cc2)c(C#N)c(Br)c1C(F)(F)F please inactive

###

# target entity: human Phosphodiesterase 10 (PDE10), PDE10A (gene 10846) (UniProt Q9Y233)
# Sequence (Q9Y233 whole entry, looked up): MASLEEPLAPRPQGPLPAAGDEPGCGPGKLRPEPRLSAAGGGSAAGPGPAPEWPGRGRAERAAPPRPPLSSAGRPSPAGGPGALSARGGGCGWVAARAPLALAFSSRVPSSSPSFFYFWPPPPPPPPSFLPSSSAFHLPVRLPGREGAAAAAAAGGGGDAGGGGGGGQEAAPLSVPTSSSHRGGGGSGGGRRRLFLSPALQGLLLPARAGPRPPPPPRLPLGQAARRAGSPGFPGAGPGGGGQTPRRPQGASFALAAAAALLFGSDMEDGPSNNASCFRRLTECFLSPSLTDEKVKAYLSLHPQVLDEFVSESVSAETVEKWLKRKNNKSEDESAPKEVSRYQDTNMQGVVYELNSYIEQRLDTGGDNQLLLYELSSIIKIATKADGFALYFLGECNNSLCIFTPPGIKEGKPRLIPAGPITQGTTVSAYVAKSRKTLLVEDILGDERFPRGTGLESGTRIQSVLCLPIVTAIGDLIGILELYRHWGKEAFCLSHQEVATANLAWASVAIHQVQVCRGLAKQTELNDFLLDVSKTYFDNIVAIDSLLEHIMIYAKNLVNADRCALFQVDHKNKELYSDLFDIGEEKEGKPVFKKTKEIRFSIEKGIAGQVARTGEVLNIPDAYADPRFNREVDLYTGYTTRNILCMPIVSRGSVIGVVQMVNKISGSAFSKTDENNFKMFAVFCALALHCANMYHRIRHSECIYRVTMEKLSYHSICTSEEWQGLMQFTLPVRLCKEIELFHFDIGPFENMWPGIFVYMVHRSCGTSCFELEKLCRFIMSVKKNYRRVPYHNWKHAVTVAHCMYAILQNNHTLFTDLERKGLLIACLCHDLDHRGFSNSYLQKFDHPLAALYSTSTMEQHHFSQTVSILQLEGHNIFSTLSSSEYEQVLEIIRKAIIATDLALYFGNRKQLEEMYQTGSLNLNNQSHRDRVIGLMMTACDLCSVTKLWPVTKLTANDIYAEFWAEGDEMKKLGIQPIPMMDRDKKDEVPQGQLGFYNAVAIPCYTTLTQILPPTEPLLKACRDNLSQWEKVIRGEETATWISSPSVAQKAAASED
# test name: NVS_ENZ_hPDE10: NovaScreen (NVS) Enzymatic Assay for human Phosphodiesterase 10 (PDE10) (AID 2283195)
Inconclusive results are not listed. The source made the active and inactive calls. Rule for the calls: active = hit-call score of the fitted dose curve at least 0.9, where 1 is the maximum; inconclusive = response in the unintended direction; inactive = score below 0.9.
measurement name: AC50

{"columns": ["molecule", "target entity", "measurement name", "reported value"],
 "data": [
  ["CN(CCCC(O)c1cccnc1)N=O (configuration not stated)", "human Phosphodiesterase 10 (PDE10), PDE10A (gene 10846) (UniProt Q9Y233)", "AC50", "35.5 µM (active)"],
  ["CC(C)[N+](=O)[O-]", "human Phosphodiesterase 10 (PDE10), PDE10A (gene 10846) (UniProt Q9Y233)", "AC50", "inactive"],
  ["N#Cc1ccccc1Cl", "human Phosphodiesterase 10 (PDE10), PDE10A (gene 10846) (UniProt Q9Y233)", "AC50", "inactive"],
  ["BrCCCCBr", "human Phosphodiesterase 10 (PDE10), PDE10A (gene 10846) (UniProt Q9Y233)", "AC50", "4.81 µM (active)"]
]}

I am curious: what AC50 value has been reported for CCOP(=O)(OCC)SCCSCC ? inactive

Again, but for Oc1ccc(Cc2ccc(O)cc2)cc1 inactive

Moving on to the next molecule: CC(C)(C)c1ccc(CCOc2ncnc3ccccc23)cc1 inactive

###

# Read-out: Human Leukocyte Antigen - DR isotype (HLADR), HLA-DRA (gene 3122)
# test name: BSK_BE3C_HLADR: BioMAP Diversity Plus: BE3C Assay for Human Leukocyte Antigen - DR isotype (HLADR) Biomarker Activity (AID 2283032)
# measurement parameters: primary human bronchial epithelial cells; actives raise or lower the signal
Active and inactive are the calls of the source. How the source made its calls: active means hit-call score of the fitted dose curve at least 0.9, where 1 is the maximum; inactive means score below 0.9.
The reply should name one outcome from y = active, n = inactive

Query: recorded result category for CCOC(=O)CCN(SN(C)C(=O)Oc1cccc2c1OC(C)(C)C2)C(C)C in this test n

Also check Nc1ccc(N)cc1 n

Also need Oc1c(Cl)cc(Cl)cc1Cl , thanks. n

Same for O=S(=O)(c1ccc(Cl)cc1)c1cc(Cl)c(Cl)cc1Cl n

// same read-out, input: CCN(CC)C(=O)C(Cl)=C(C)OP(=O)(OC)OC n

What about this compound? O=C(O)C1(c2ccc3c(c2)OC[C@H](Cc2ccc(-c4ccccc4)cc2)[C@H]3O)CCCC1 y

Cc1c([N+](=O)[O-])c(C)c([N+](=O)[O-])c(C(C)(C)C)c1[N+](=O)[O-] , same question. n

Check COCC(=O)N(c1c(C)cccc1C)[C@H](C)C(=O)OC too. n

Let us now turn to CCOP(=S)(OCC)OP(=S)(OCC)OCC n

Another compound to check: Oc1c(Br)cc(Br)cc1Br y

Clc1cccc(Cl)c1 ? n

Cool, now C[C@]12CC[C@@H](O)C[C@@H]1CC[C@@H]1[C@@H]2CC[C@]2(C)C(=O)CC[C@@H]12 n

Same thing, different compound: CCCCOC(=O)COC(=O)c1ccccc1C(=O)OCCCC n

Same question, N#Cc1cccnc1 this time n

Entry Cc1cccc(OP(=O)(Oc2cccc(C)c2)Oc2cccc(C)c2)c1 please n

Consider next the compound O=C(N[C@H]1CN2CCC1CC2)c1ccc2c(c1)OCCO2 in the same way. n

# iterate: CC(C)=CC1C(C(=O)OCc2cccc(Oc3ccccc3)c2)C1(C)C (centres undefined) n

Oc1ccc(Cc2ccc(O)cc2)cc1 ? n

Same question, O=C1C=CC(=O)c2ccccc21 this time y

// repeat for CCOC(=O)CC(=O)CCl and report y

Try this compound too: O=C(Cc1ccccc1)OCCc1ccccc1 n

And CCCCCCCCCCCCN(C)C ? n

Same thing, different compound: Cc1ccc(OP(=O)(Oc2ccc(C)cc2C)Oc2ccc(C)cc2C)c(C)c1 n

Cool, now Cc1ccc2nc3sc(=O)sc3nc2c1 y

Could you do the same for Nc1c(Oc2ccccc2)cc(O)c2c1C(=O)c1ccccc1C2=O , please? n

One more compound: CCC(C)(C#N)N=NC(C)(C#N)CC (centres undefined) n

Next compound: Cc1cc(C(C)(C)c2ccc(O)c(C)c2)ccc1O y

How about this compound: CC(C)O.CC(C)O.OCCN(CCO)CCO.OCCN(CCO)CCO.[Ti] n

Same question, OC(Cc1ccccc1Cl)(Cn1cncn1)C1(Cl)CC1 (centres undefined) this time n

Likewise for Cc1ccccc1OP(=O)(Oc1ccccc1C)Oc1ccccc1C ? y

What about COc1ccccc1N ? n

Try this compound too: CC(C)(C)c1ccccc1O n

Subsequent entry: N#CCCC(Br)(C#N)CBr (centres undefined) y

Queued: OC(Cc1ccccc1Cl)(Cn1[nH]cnc1=S)C1(Cl)CC1 (centres undefined) y

Next compound up: CC(C)(C)c1cc([N+](=O)[O-])cc(C(C)(C)C)c1O n

Next compound: Cc1cc(C)cc(C)c1 n

Try this compound next: O=C(CCl)NCO n

Lookup CCOP(=O)(OCC)SCCSCC n

Entry Clc1cccc(Cl)c1Cl please n
